- EXPERIMENT_NOTES: xn = mol fraction of the nth substance listed
- RUN_CONDITIONS: 318.15 K; 101.3 kPa; x1 = 0.3

{"MOLECULE": "C=C[n+]1ccn(CCCC)c1.NCCCC[C@H](N)C(=O)[O-] + O", "electrical conductivity": "3.29 S/m"}
{"MOLECULE": "C=Cn1cc[n+](CCCC)c1.NCC(=O)[O-] + O", "electrical conductivity": "2.44 S/m"}
{"MOLECULE": "C=C[n+]1ccn(CCCC)c1.N[C@@H](Cc1c[nH]cn1)C(=O)[O-] + O", "electrical conductivity": "4.38 S/m"}
{"MOLECULE": "C=C[n+]1ccn(CCCC)c1.N[C@@H](CO)C(=O)[O-] + O", "electrical conductivity": "3.65 S/m"}
